The reported numbers originate from patent US20250288573A1.

# studySystem: cereblon (CRBN) (Homo sapiens)
# Sequence (Q96SW2 whole entry, species assumed): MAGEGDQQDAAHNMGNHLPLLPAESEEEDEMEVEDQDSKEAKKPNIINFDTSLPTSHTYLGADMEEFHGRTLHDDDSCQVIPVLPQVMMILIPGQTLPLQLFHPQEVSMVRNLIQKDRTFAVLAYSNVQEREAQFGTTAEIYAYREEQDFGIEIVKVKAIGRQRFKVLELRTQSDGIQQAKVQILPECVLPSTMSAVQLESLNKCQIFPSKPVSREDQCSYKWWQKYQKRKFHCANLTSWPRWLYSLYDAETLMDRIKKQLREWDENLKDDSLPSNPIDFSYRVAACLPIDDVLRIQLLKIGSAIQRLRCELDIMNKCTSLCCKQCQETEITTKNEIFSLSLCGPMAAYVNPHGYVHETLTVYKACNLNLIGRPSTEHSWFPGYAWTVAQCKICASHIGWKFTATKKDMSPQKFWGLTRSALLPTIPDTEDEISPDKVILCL
# assayMethodText: Kd and % inhibition from FI
# Format: binding
# experimentalConditions: read-out: % inhibition @ 200 uM from *FI
Record YES whenever inhibition at 200 µM is at 70% or higher; record NO when lower.

Below, 5 molecules whose answers are already recorded.
O=C1CCC(N2Cc3c(NC(=O)CCCCC(=O)Nc4cccc5c4CN(C4CCC(=O)NC4=O)C5=O)cccc3C2=O)C(=O)N1 (stereo not drawn) ... YES
O=C1CCC(N2Cc3c(NC(=O)CCCCCCCC(=O)Nc4cccc5c4CN(C4CCC(=O)NC4=O)C5=O)cccc3C2=O)C(=O)N1 (stereo not drawn) ... NO
O=C1CCC(N2Cc3c(NC(=O)CCCCCCC(=O)Nc4cccc5c4CN(C4CCC(=O)NC4=O)C5=O)cccc3C2=O)C(=O)N1 (stereo not drawn) ... NO
O=C1CCC(N2Cc3c(NC(=O)CCCCCCCCC(=O)Nc4cccc5c4CN(C4CCC(=O)NC4=O)C5=O)cccc3C2=O)C(=O)N1 (stereo not drawn) ... NO
O=C1CCC(N2Cc3c(CCCOCCOCCOCCCc4cccc5c4CN(C4CCC(=O)NC4=O)C5=O)cccc3C2=O)C(=O)N1 (stereo not drawn) ... YES

Textbook exercise: given the entry O=C(CCc1cccc2c1CN(C1CCC(=O)NC1=O)C2=O)NCCOCCOCCNC(=O)CCc1cccc2c1CN(C1CCC(=O)NC1=O)C2=O (stereo not drawn) , state whether its inhibition at 200 µM is greater than or equal to 70%.
YES

Textbook exercise: given the entry O=C(/C=C/c1cccc2c1CN(C1CCC(=O)NC1=O)C2=O)NCCOCCNC(=O)/C=C/c1cccc2c1CN(C1CCC(=O)NC1=O)C2=O (stereo not drawn) , state whether its inhibition at 200 µM is greater than or equal to 70%.
YES

Textbook exercise: given the entry O=C(CCc1cccc2c1CN(C1CCC(=O)NC1=O)C2=O)NCCOCCNC(=O)CCc1cccc2c1CN(C1CCC(=O)NC1=O)C2=O (stereo not drawn) , state whether its inhibition at 200 µM is greater than or equal to 70%.
YES

Textbook exercise: given the entry O=C1CCC(N2C(=O)c3cccc(NC(=O)CCCCCC(=O)Nc4cccc5c4C(=O)N(C4CCC(=O)NC4=O)C5=O)c3C2=O)C(=O)N1 (stereo not drawn) , state whether its inhibition at 200 µM is greater than or equal to 70%.
NO

Textbook exercise: given the entry O=C1CCC(N2C(=O)c3cccc(NC(=O)CCCC(=O)Nc4cccc5c4C(=O)N(C4CCC(=O)NC4=O)C5=O)c3C2=O)C(=O)N1 (stereo not drawn) , state whether its inhibition at 200 µM is greater than or equal to 70%.
NO

Textbook exercise: given the entry O=C(COc1cccc2c1C(=O)N(C1CCC(=O)NC1=O)C2=O)NCCCCNC(=O)COc1cccc2c1C(=O)N(C1CCC(=O)NC1=O)C2=O (stereo not drawn) , state whether its inhibition at 200 µM is greater than or equal to 70%.
NO

Textbook exercise: given the entry O=C1CCC(N2Cc3c(CCCOCCCc4cccc5c4CN(C4CCC(=O)NC4=O)C5=O)cccc3C2=O)C(=O)N1 (stereo not drawn) , state whether its inhibition at 200 µM is greater than or equal to 70%.
YES

Textbook exercise: given the entry O=C(COc1cccc2c1C(=O)N(C1CCC(=O)NC1=O)C2=O)NCCCOCCCNC(=O)COc1cccc2c1C(=O)N(C1CCC(=O)NC1=O)C2=O (stereo not drawn) , state whether its inhibition at 200 µM is greater than or equal to 70%.
YES

Textbook exercise: given the entry O=C(/C=C/c1cccc2c1CN(C1CCC(=O)NC1=O)C2=O)NCCOCCOCCOCCNC(=O)/C=C/c1cccc2c1CN(C1CCC(=O)NC1=O)C2=O (stereo not drawn) , state whether its inhibition at 200 µM is greater than or equal to 70%.
YES

Textbook exercise: given the entry O=C1CCC(N2Cc3c(NC(=O)CCCC(=O)Nc4cccc5c4CN(C4CCC(=O)NC4=O)C5=O)cccc3C2=O)C(=O)N1 (stereo not drawn) , state whether its inhibition at 200 µM is greater than or equal to 70%.
YES

Textbook exercise: given the entry O=C1CCC(N2C(=O)c3cccc(NC(=O)CCCCC(=O)Nc4cccc5c4C(=O)N(C4CCC(=O)NC4=O)C5=O)c3C2=O)C(=O)N1 (stereo not drawn) , state whether its inhibition at 200 µM is greater than or equal to 70%.
NO

Textbook exercise: given the entry O=C1CCC(N2Cc3c(CCCOCCOCCOCCOCCOCCCc4cccc5c4CN(C4CCC(=O)NC4=O)C5=O)cccc3C2=O)C(=O)N1 (stereo not drawn) , state whether its inhibition at 200 µM is greater than or equal to 70%.
YES

Textbook exercise: given the entry O=C1CCC(N2Cc3c(NC(=O)[C@H]4CC[C@H](C(=O)Nc5cccc6c5CN(C5CCC(=O)NC5=O)C6=O)CC4)cccc3C2=O)C(=O)N1 (stereo partly drawn) , state whether its inhibition at 200 µM is greater than or equal to 70%.
NO

Textbook exercise: given the entry O=C1CCC(N2Cc3c(CCCOCCOCCOCCOCCCc4cccc5c4CN(C4CCC(=O)NC4=O)C5=O)cccc3C2=O)C(=O)N1 (stereo not drawn) , state whether its inhibition at 200 µM is greater than or equal to 70%.
YES

Textbook exercise: given the entry O=C(CCc1cccc2c1CN(C1CCC(=O)NC1=O)C2=O)NCCOCCOCCOCCNC(=O)CCc1cccc2c1CN(C1CCC(=O)NC1=O)C2=O (stereo not drawn) , state whether its inhibition at 200 µM is greater than or equal to 70%.
YES

* * *

# studySystem: cereblon (CRBN) (Homo sapiens)
# assayMethodText: Kd from ITC
# Format: binding
Entries and their pKd
Interpret pKd as the negative base-10 log of the concentration measured in mol/L.

Sample records with pKd:
O=C(COc1cccc2c1C(=O)N(C1CCC(=O)NC1=O)C2=O)NCCOCCOCCNC(=O)COc1cccc2c1C(=O)N(C1CCC(=O)NC1=O)C2=O (stereo not drawn) [SM2-048] ... 4.91
O=C1CCC(N2Cc3c(CCCOCCCc4cccc5c4CN(C4CCC(=O)NC4=O)C5=O)cccc3C2=O)C(=O)N1 (stereo not drawn) [SM2-144] ... 5.36

# evaluate next
So what does the record say about pKd for O=C1CCC(N2Cc3c(CCCOCCOCCCc4cccc5c4CN(C4CCC(=O)NC4=O)C5=O)cccc3C2=O)C(=O)N1 (stereo not drawn) [SM2-145] ?
5.18

* * *

# studySystem: CRBN (Homo sapiens)
# Construct: endogenous in cells; host or cells: primary human T cells / CD8+ T cells from peripheral blood
# assayMethodText: Western blot for expression of CRBN relative to vinculin in human T cells (CRBN degradation)
# Type: cell-based
# experimentalConditions: 24 h, 10nM; human T cells, 24 hours; read-out: Relative Density of CRBN (% of DMSO)
Threshold check on remaining activity at 0.01 µM: strictly below 70% is Satisfied; on or above 70% is Not satisfied.

Below, 2 compounds whose answers are already recorded.
CN1C(=O)CCC(N2Cc3c(CCCOCCOCCCc4cccc5c4CN(C4CCC(=O)N(C)C4=O)C5=O)cccc3C2=O)C1=O (stereo not shown) ... Not satisfied
Cc1nc2cccc(NC(=O)Cn3cc(CCC(=O)Nc4cccc5c4CN(C4CCC(=O)NC4=O)C5=O)nn3)c2c(=O)n1C1CCC(=O)NC1=O (stereo not shown) ... Not satisfied

For O=C1CCC(N2C(=O)c3cccc(NC(=O)[C@H]4CC[C@@H](C(=O)Nc5cccc6c5C(=O)N(C5CCC(=O)NC5=O)C6=O)CC4)c3C2=O)C(=O)N1 (stereo partly shown) , is the recorded remaining activity at 0.01 µM below the cut-off of 70%?
Not satisfied

For O=C1CCC(N2C(=O)c3cccc(NC(=O)CCCCCCCCC(=O)Nc4cccc5c4C(=O)N(C4CCC(=O)NC4=O)C5=O)c3C2=O)C(=O)N1 (stereo not shown) , is the recorded remaining activity at 0.01 µM below the cut-off of 70%?
Satisfied

For O=C1CCC(N2Cc3c(NC(=O)CCCC(=O)Nc4cccc5c4CN(C4CCC(=O)NC4=O)C5=O)cccc3C2=O)C(=O)N1 (stereo not shown) , is the recorded remaining activity at 0.01 µM below the cut-off of 70%?
Not satisfied

For O=C1CCC(NC(=O)CCCCCCCCC(=O)NC2CCC(=O)NC2=O)C(=O)N1 (stereo not shown) , is the recorded remaining activity at 0.01 µM below the cut-off of 70%?
Satisfied

For O=C1CCC(N2Cc3ccc(NC(=O)CCCC(=O)Nc4ccc5c(c4)C(=O)N(C4CCC(=O)NC4=O)C5)cc3C2=O)C(=O)N1 (stereo not shown) , is the recorded remaining activity at 0.01 µM below the cut-off of 70%?
Satisfied

For O=C1CCC(N2Cc3c(NC(=O)CCCCCCC(=O)Nc4cccc5c4CN(C4CCC(=O)NC4=O)C5=O)cccc3C2=O)C(=O)N1 (stereo not shown) , is the recorded remaining activity at 0.01 µM below the cut-off of 70%?
Not satisfied

For O=C1CCC(N2Cc3c(NC(=O)CCCCC(=O)Nc4cccc5c4CN(C4CCC(=O)NC4=O)C5=O)cccc3C2=O)C(=O)N1 (stereo not shown) , is the recorded remaining activity at 0.01 µM below the cut-off of 70%?
Not satisfied

For Cc1nc2cccc(C#CCOCCOCCOCC#Cc3cccc4nc(C)n(C5CCC(=O)NC5=O)c(=O)c34)c2c(=O)n1C1CCC(=O)NC1=O (stereo not shown) , is the recorded remaining activity at 0.01 µM below the cut-off of 70%?
Satisfied

For O=C1CCC(N2C(=O)c3cccc(NC(=O)CCCCCCC(=O)Nc4cccc5c4C(=O)N(C4CCC(=O)NC4=O)C5=O)c3C2=O)C(=O)N1 (stereo not shown) , is the recorded remaining activity at 0.01 µM below the cut-off of 70%?
Satisfied

For O=C(CCc1cccc2c1CN(C1CCC(=O)NC1=O)C2=O)NCCOCCOCCNC(=O)CCc1cccc2c1CN(C1CCC(=O)NC1=O)C2=O (stereo not shown) , is the recorded remaining activity at 0.01 µM below the cut-off of 70%?
Not satisfied
